target-of-assay: SPIN1 (SPIN1_50–262) (Homo sapiens, UniProt Q9Y657)
Sequence (Q9Y657 50-262): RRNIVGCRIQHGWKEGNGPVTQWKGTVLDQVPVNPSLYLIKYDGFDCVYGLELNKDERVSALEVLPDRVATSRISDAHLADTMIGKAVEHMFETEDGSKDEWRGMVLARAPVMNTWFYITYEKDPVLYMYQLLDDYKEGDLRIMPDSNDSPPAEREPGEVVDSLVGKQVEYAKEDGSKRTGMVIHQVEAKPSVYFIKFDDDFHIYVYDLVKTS
pKd: −log10 of the molar value.
property: pKd

>  <molecule>
O=C(c1ccc(C(=O)N2CCC(CCN3CCCC3)CC2)c(Nc2ccccc2)c1)N1CCC(CCN2CCCC2)CC1 [EML405]

>  <target-of-assay>
SPIN1 (SPIN1_50–262) (Homo sapiens, UniProt Q9Y657)

>  <property>
pKd

>  <test-value>
4.82

$$$$
